All values here come from patent US12030904B2.

Test method notes: MT4 cytotoxicity (CC50)
Experimental conditions: human, MT4 cells, MT4 CC50, Table 4
Measured attribute: CC50 (nM)
API: value field is a number in nM; no unit string.

Field request: CC50 | item: CCCCCCCCCCCCCCCCCCOC[C@H](COP(=O)(O)OC[C@H]1O[C@@](C#N)(c2ccc3c(N)ncnn23)[C@H](O)[C@@H]1O)Oc1ccc(C#N)c(OCC)c1 [Example 85]
143

Given the compound CCCCCCCC/C=C/CCCCCCCCOC[C@H](COP(=O)(O)OC[C@H]1O[C@@](C#N)(c2ccc3c(N)ncnn23)[C@H](O)[C@@H]1O)OCc1cc(F)cc(C#N)c1 [Example 126] , what is its reported CC50?
366

Query: CC50; subject: CCCCCCCCCCCCCCCCCCOC[C@H](COP(=O)(O)OC[C@H]1O[C@@](C#N)(c2ccc3c(N)ncnn23)[C@H](O)[C@@H]1O)OCc1ccc(C#N)nc1 [Example 116]
690

Name the reported CC50 value associated with the compound CCCCCCCCCCCCCCCCCCOC[C@H](COP(=O)(O)OC[C@H]1O[C@@](C#N)(c2ccc3c(N)ncnn23)[C@H](O)[C@@H]1O)OCc1ccc(C#N)cc1C(F)(F)F [Example 105]
20100

Give its CC50 value. Item: CCCCCCCCCCCCCCCCCCOC[C@H](COP(=O)(O)OC[C@H]1O[C@@](C#N)(c2ccc3c(N)ncnn23)[C@H](O)[C@@H]1O)n1cnc(C#N)c1 [Example 79]
10100

Quick one: CC50 of CCCCCCCCCCCCCCCCCCOC[C@H](COP(=O)(O)OC[C@H]1O[C@@](C#N)(c2ccc3c(N)ncnn23)[C@H](O)[C@@H]1O)OCc1ccc(C#N)cc1OC [Example 114] ?
1880

Give the measured CC50 of CCCCCCCCCCCCCCCCCOC[C@H](COP(=O)(O)OC[C@H]1O[C@@](C#N)(c2ccc3c(N)ncnn23)[C@H](O)[C@@H]1O)OCc1ccc(C#N)c(F)c1 [Example 94] .
273

Look up CC50 for this compound: CCCCCCCCCCCCCCCCCOCCCCOP(=O)(O)OC[C@H]1O[C@@](C#N)(c2ccc3c(N)ncnn23)[C@H](O)[C@@H]1O [Example 121]
10400

May I ask what CC50 has been recorded for CCCCCCCCCCCCCCCCCCOC[C@H](COP(=O)(O)OC[C@H]1O[C@@](C#N)(c2ccc3c(N)ncnn23)[C@H](O)[C@@H]1O)Oc1ccc(OC)cn1 [Example 89] ?
962

// lookup CC50 for CCCCCCCCCCCCCCCCCCOC[C@H](COP(=O)(O)OC[C@H]1O[C@@](C#N)(c2ccc3c(N)ncnn23)[C@H](O)[C@@H]1O)OCc1ccc(C#N)cc1Cl [Example 103]
50000

Which CC50 value is on record for CCCCCCCCCCCCCCCCCCOC[C@H](COP(=O)(O)OC[C@H]1O[C@@](C#N)(c2ccc3c(N)ncnn23)[C@H](O)[C@@H]1O)OCc1ccc2ccccc2n1 [Example 92] ?
1760

====

Tested on: SARS-CoV-2
Test method notes: microbe, parasite or virus in culture
Type: cell-based
Experimental conditions: Severe acute respiratory syndrome coronavirus 2, 48 h; read-out: SARS-CoV-2 EC50
Measured attribute: pEC50
In plain terms, pEC50 is the concentration in mol/L turned into minus its base-10 logarithm.

[[record]]
compound_smiles = "CCCCCCCCCCCCCCCCCCOC[C@H](COP(=O)(O)OC[C@H]1O[C@@](C#N)(c2ccc3c(N)ncnn23)[C@H](O)[C@@H]1O)OCc1ccc(OC)cc1"
target_desc = "SARS-CoV-2"
measured_attribute = "pEC50"
experimental_result = 6.52


Can you share its pEC50? I mean this molecule: "CCCCCCCCCCCCCCCCCCOC[C@H](COP(=O)(O)OC[C@H]1O[C@@](C#N)(c2ccc3c(N)ncnn23)[C@H](O)[C@@H]1O)OCc1ccc(C(F)(F)F)cc1"
6.46

What value of pEC50 has been reported for the following molecule? "CCCCCCCCCCCCCCCCCCOC[C@H](COP(=O)(O)OC[C@H]1O[C@@](C#N)(c2ccc3c(N)ncnn23)[C@H](O)[C@@H]1O)OCc1cc(F)cc(C#N)c1"
6.66

Entry under review: "CCCCCCCCCCCCCCCCCCOC[C@H](COP(=O)(O)OC[C@H]1O[C@@](C#N)(c2ccc3c(N)ncnn23)[C@H](O)[C@@H]1O)OCc1ccc(F)c(Cl)c1" . Reported pEC50?
6.16
